Measured cell viability (log2) by item
System: A673/TR/shEF
PROTOCOL_DESCRIPTION: cell viability (LOESS-normalised, relative to median of negative controls) (log2 ratio); higher = more viable cells (less compound effect), active = hit call of the paper (over 3 MAD below the median)
COND: 0.25 µM; library screen: screen1; EWS-FLI1 expression: low (doxycycline-induced shRNA knockdown); treatment time: 72 h
The whole screen tested about 3,200 compounds, of which about 300 (9.4%) showed activity. The list comes from a sample in which actives are over-represented; it also holds close analogues and randomly drawn compounds.
Answer with the value's number alone.

Here is how some compounds turned out for cell viability (log2).
[
  {
    "COMPOUND": "CCCCCC[C@H]1C(=O)O[C@H](C)[C@H](NC(=O)c2cccc(NC=O)c2O)C(=O)O[C@@H](C)[C@@H]1OC(=O)CC(C)C",
    "RECORDED_NUMBER": -0.636
  },
  {
    "COMPOUND": "CCOCN(C(=O)CCl)c1c(C)cccc1CC",
    "RECORDED_NUMBER": 0.0121
  },
  {
    "COMPOUND": "O=C1C=CC(=O)c2c(O)cccc21",
    "RECORDED_NUMBER": 0.0663
  },
  {
    "COMPOUND": "O=C(O)COc1cc(Cl)c(Cl)cc1Cl",
    "RECORDED_NUMBER": 0.0603
  },
  {
    "COMPOUND": "CN1C2C[C@H](OC(=O)[C@H](CO)c3ccccc3)CC1[C@@H](O)C2 (stereo partly specified)",
    "RECORDED_NUMBER": 0.0137
  }
]

// map COc1nc(NC(C)C)nc(NC(C)C)n1 to recorded cell viability (log2) (system: A673/TR/shEF) 0.0381

Param item: CC(C)CC(NC(=O)C(Cc1ccccc1)NC(=O)CNC(=O)CNC(=O)C(N)Cc1ccc(O)cc1)C(=O)O (stereo unspecified) 0.0904

Param item: NNCc1cccc(O)c1 0.0544

Param item: CC[C@@]1(O)C[C@H](OC2C[C@@H](N(C)C)C(O)C(C)O2)c2c(cc3c(c2O)C(=O)c2c(O)ccc(O)c2C3=O)[C@H]1C(=O)OC (stereo partly specified) 0.158

Param item: NCCc1ccc(O)cc1 0.0662

Param item: CCc1cccc(CC)c1N(COC)C(=O)CCl -0.00378

* * *

Tested on: A673/TR/shEF
PROTOCOL_DESCRIPTION: cell viability (LOESS-normalised, relative to median of negative controls) (log2 ratio); higher = more viable cells (less compound effect), active = hit call of the paper (over 3 MAD below the median)
COND: 2.5 µM; library screen: screen1; EWS-FLI1 expression: low (doxycycline-induced shRNA knockdown); treatment time: 72 h
Out of some 3,200 compounds screened, about 300 (9.4%) showed activity. Only a selection was taken, and actives are over-represented in it overall.
Measured cell viability (log2) by item
Answer with the value's number alone.

Here is how some compounds turned out for cell viability (log2).
[
  {
    "COMPOUND": "CO[C@H]1C[C@H](O[C@H]2CCC3(C=O)C4CCC5(C)C(C6=CC(=O)OC6)CCC5(O)C4CC[C@]3(O)C2)O[C@H](C)[C@H]1O (some centres undefined)",
    "QUANTITY_KIND": "cell viability (log2)",
    "RECORDED_NUMBER": -3.2
  },
  {
    "COMPOUND": "O=C(O)CCCc1ccc(N(CCCl)CCCl)cc1",
    "QUANTITY_KIND": "cell viability (log2)",
    "RECORDED_NUMBER": 0.131
  },
  {
    "COMPOUND": "COC1C(O)C(O[C@H]2CC[C@]3(C=O)C4C(CC[C@]3(O)C2)[C@@]2(O)CC[C@H](C3=CC(=O)OC3)[C@@]2(C)C[C@H]4OC(C)=O)OC(C)C1OC(C)=O (some centres undefined)",
    "QUANTITY_KIND": "cell viability (log2)",
    "RECORDED_NUMBER": 0.082
  }
]

Requested read-out: cell viability (log2). Entry: N#Cc1c(Cl)cccc1Cl 0.0798

The measured values listed here are drawn from the supplement of paper PMC6089552.
